Listing of recorded Papp at 10 h, 25 ug/ml by entry.
experiment: in vitro; settings: PAMPA
Description: Effective permeability of the compound in PBS/ethanol buffer (9:1) at 25 ug/ml after 10 hrs by UV plate reader based PAMPA-BBB assay
Provide the reading as a plain figure in ×10⁻⁶ cm/s.

The examples below pair each entry with its known result.
[[record]]
smiles = "O=C(CN1CCCCC1)Nc1cccc2c1C(=O)c1cccc3ccnc-2c13"
readout_number = 1.63

[[record]]
smiles = "O=C(CCN1CCCCC1)Nc1cccc2c1C(=O)c1cccc3ccnc-2c13"
readout_number = 2.54

[[record]]
smiles = "O=C(CN1CCCCC1)Nc1c(Cl)ccc2c1-c1nccc3cccc(c13)C2=O"
readout_number = 1.36

[[record]]
smiles = "O=C(CCN1CCCCC1)Nc1c(Cl)ccc2c1-c1nccc3cccc(c13)C2=O"
readout_number = 8.24

[[record]]
smiles = "O=C(CCCN1CCCCC1)Nc1cccc2c1C(=O)c1cccc3ccnc-2c13"
readout_number = 1.52


### Prompt Give its Papp at 10 h, 25 ug/ml value. Item: `O=C(CCCCN1CCCCC1)Nc1c(Cl)ccc2c1-c1nccc3cccc(c13)C2=O`
### Response 1.74

### Prompt Give its Papp at 10 h, 25 ug/ml value. Item: `O=C(CCCCCN1CCCCC1)Nc1c(Cl)ccc2c1-c1nccc3cccc(c13)C2=O`
### Response 2.72
